Assay: gradient 5% acetonitrile 3 min, to 50% in 2 min, to 85% in 15 min, held 3 min, 100 µL/min
Conditions: column: Zorbax Extend-C18 2.1 x 50 mm; eluents: water / acetonitrile, 0.1% formic acid
MEASUREMENT KIND: RP-LC retention time (s)

{"COMPOUND": "CCOCCCNC(=O)C1CCN(C2=NS(=O)(=O)C(c3ccc(CC)cc3)=C2C)CC1", "VALUE": 810}
{"COMPOUND": "Cc1ccc2[nH]cc(CCN3CC(C(=O)Nc4nnc(C(C)(C)C)s4)CC3=O)c2c1 (stereo not drawn)", "VALUE": 801}
{"COMPOUND": "CCOc1ccc(C(=O)Nc2ccc(Nc3ccc(-n4cccn4)nn3)cc2)cc1OCC", "VALUE": 782}

Hey, just so you know, these numbers are from the METLIN SMRT retention time set (Domingo-Almenara et al. 2019).
